# System: mice bearing PSMA-expressing LNCAP cancer xenografts
# experiment_description: Biodistribution of 68Ga-labeled compounds
# Assay type: in vivo
# stated_conditions: 3 h post-injection
reported_property: Bone uptake (% ID/g)
Write the answer as a number in % ID/g, unit excluded.

Ask | // lookup Bone uptake | system=mice bearing PSMA-expressing LNCAP cancer xenografts | key= O=C([O-])CN1CCN(CC(=O)[O-])CCN(CC(=O)NCCCC[C@H](NC(=O)CNC(=O)CCCc2ccc(I)cc2)C(=O)NC[C@H]2CC[C@H](C(=O)N[C@@H](Cc3ccc4ccccc4c3)C(=O)NCCCC[C@H](NC(=O)N[C@@H](CCC(=O)O)C(=O)O)C(=O)O)CC2)CCN(CC(=O)[O-])CC1.[68Ga+3] [^68Ga-HTK03024]
Reply | 1.66

----------
# Tested on: mice bearing PSMA-expressing LNCAP cancer xenografts
# experiment_description: Biodistribution of 68Ga-labeled compounds
# Assay type: in vivo
# stated_conditions: 1 h post-injection
# binarize Spleen uptake: threshold 3 % ID/g inclusive, high side Satisfied, low side Not satisfied

Completed entries (count: 3):
compound	class
CCCCCCC(NC(=O)C1CCC(CNC(=O)CN2CCN(CC(=O)[O-])CCN(CC(=O)[O-])CCN(CC(=O)[O-])CC2)CC1)C(=O)NCCCCC(NC(=O)NC(CCC(=O)O)C(=O)O)C(=O)O.[68Ga+3] (stereo not shown) [^68Ga-HTK03026]	Not satisfied
Cc1ccc(CCCC(=O)NCC(=O)N[C@@H](CCCCNC(=O)CN2CCN(CC(=O)[O-])CCN(CC(=O)[O-])CCN(CC(=O)[O-])CC2)C(=O)NC[C@H]2CC[C@H](C(=O)N[C@@H](Cc3ccc4ccccc4c3)C(=O)NCCCC[C@H](NC(=O)N[C@@H](CCC(=O)O)C(=O)O)C(=O)O)CC2)cc1.[68Ga+3] [^68Ga-HTK03090]	Not satisfied
O=C([O-])CN1CCN(CC(=O)[O-])CCN(CC(=O)NCCCC[C@H](NC(=O)CNC(=O)CCCc2ccc(Br)cc2)C(=O)NC[C@H]2CC[C@H](C(=O)N[C@@H](Cc3ccc4ccccc4c3)C(=O)NCCCC[C@H](NC(=O)N[C@@H](CCC(=O)O)C(=O)O)C(=O)O)CC2)CCN(CC(=O)[O-])CC1.[68Ga+3] [^68Ga-HTK03058]	Satisfied

Ask | Quick check: does O=C([O-])CN1CCN(CC(=O)[O-])CCN(CC(=O)NCC2CCC(C(=O)NC(Cc3ccc4ccc5cccc6ccc3c4c56)C(=O)NCCCCC(NC(=O)NC(CCC(=O)O)C(=O)O)C(=O)O)CC2)CCN(CC(=O)[O-])CC1.[68Ga+3] (stereo not shown) [^68Ga-HTK03029] have Spleen uptake greater than or equal to 3 % ID/g?
Reply | Satisfied

Ask | Quick check: does O=C([O-])CN1CCN(CC(=O)[O-])CCN(CC(=O)NCCCC[C@H](NC(=O)CNC(=O)CCCc2ccc([N+](=O)[O-])cc2)C(=O)NC[C@H]2CC[C@H](C(=O)N[C@@H](Cc3ccc4ccccc4c3)C(=O)NCCCC[C@H](NC(=O)N[C@@H](CCC(=O)O)C(=O)O)C(=O)O)CC2)CCN(CC(=O)[O-])CC1.[68Ga+3] [^68Ga-HTK03089] have Spleen uptake greater than or equal to 3 % ID/g?
Reply | Satisfied

Ask | Quick check: does O=C([O-])CN1CCN(CC(=O)[O-])CCN(CC(=O)NCCCC[C@H](NC(=O)CNC(=O)CCCc2ccccc2)C(=O)NC[C@H]2CC[C@H](C(=O)N[C@@H](Cc3ccc4ccccc4c3)C(=O)NCCCC[C@H](NC(=O)N[C@@H](CCC(=O)O)C(=O)O)C(=O)O)CC2)CCN(CC(=O)[O-])CC1.[68Ga+3] [^68Ga-HTK03056] have Spleen uptake greater than or equal to 3 % ID/g?
Reply | Satisfied

Ask | Quick check: does O=C([O-])CN1CCN(CC(=O)[O-])CCN(CC(=O)NCC2CCC(C(=O)NC(Cc3c4ccccc4cc4ccccc34)C(=O)NCCCCC(NC(=O)NC(CCC(=O)O)C(=O)O)C(=O)O)CC2)CCN(CC(=O)[O-])CC1.[68Ga+3] (stereo not shown) [^68Ga-HTK03041] have Spleen uptake greater than or equal to 3 % ID/g?
Reply | Satisfied

----------
We begin with a simple list: items and their reported Bone uptake.
# Tested on: mice bearing PSMA-expressing LNCAP cancer xenografts
# experiment_description: Biodistribution of 68Ga-labeled compounds
# Format: in vivo
# stated_conditions: 1 h post-injection
Write the answer as a number in % ID/g, unit excluded.

Record excerpt, results attached:
compound	reading_unit	endpoint_result
O=C([O-])CN1CCN(CC(=O)[O-])CCN(CC(=O)NCCCC[C@H](NC(=O)CNC(=O)CCCc2ccccc2)C(=O)NC[C@H]2CC[C@H](C(=O)N[C@@H](Cc3ccc4ccccc4c3)C(=O)NCCCC[C@H](NC(=O)N[C@@H](CCC(=O)O)C(=O)O)C(=O)O)CC2)CCN(CC(=O)[O-])CC1.[68Ga+3] [^68Ga-HTK03056]	% ID/g	0.76
O=C([O-])CN1CCN(CC(=O)[O-])CCN(CC(=O)NCCCC[C@H](NC(=O)CNC(=O)CCCc2ccc(I)cc2)C(=O)NC[C@H]2CC[C@H](C(=O)N[C@@H](Cc3ccc4ccccc4c3)C(=O)NCCCC[C@H](NC(=O)N[C@@H](CCC(=O)O)C(=O)O)C(=O)O)CC2)CCN(CC(=O)[O-])CC1.[68Ga+3] [^68Ga-HTK03024]	% ID/g	1.26
O=C([O-])CN1CCN(CC(=O)[O-])CCN(CC(=O)NCC2CCC(C(=O)NC(Cc3ccc4cc5ccccc5cc4c3)C(=O)NCCCCC(NC(=O)NC(CCC(=O)O)C(=O)O)C(=O)O)CC2)CCN(CC(=O)[O-])CC1.[68Ga+3] (centres unmarked) [^68Ga-HTK03027]	% ID/g	0.70
O=C([O-])CN1CCN(CC(=O)[O-])CCN(CC(=O)NCC2CCC(C(=O)NC(Cc3ccc4ccc5cccc6ccc3c4c56)C(=O)NCCCCC(NC(=O)NC(CCC(=O)O)C(=O)O)C(=O)O)CC2)CCN(CC(=O)[O-])CC1.[68Ga+3] (centres unmarked) [^68Ga-HTK03029]	% ID/g	0.92

Ask | Which value of Bone uptake has been reported for O=C([O-])CN1CCN(CC(=O)[O-])CCN(CC(=O)NCCCC[C@H](NC(=O)CNC(=O)CCCc2ccc(Br)cc2)C(=O)NC[C@H]2CC[C@H](C(=O)N[C@@H](Cc3ccc4ccccc4c3)C(=O)NCCCC[C@H](NC(=O)N[C@@H](CCC(=O)O)C(=O)O)C(=O)O)CC2)CCN(CC(=O)[O-])CC1.[68Ga+3] [^68Ga-HTK03058] in the records?
Reply | 1.04

Ask | Which value of Bone uptake has been reported for O=C([O-])CN1CCN(CC(=O)[O-])CCN(CC(=O)NCC2CCC(C(=O)NC(Cc3c4ccccc4cc4ccccc34)C(=O)NCCCCC(NC(=O)NC(CCC(=O)O)C(=O)O)C(=O)O)CC2)CCN(CC(=O)[O-])CC1.[68Ga+3] (centres unmarked) [^68Ga-HTK03041] in the records?
Reply | 1.29

Ask | Which value of Bone uptake has been reported for O=C([O-])CN1CCN(CC(=O)[O-])CCN(CC(=O)NCCCC[C@H](NC(=O)CNC(=O)CCCc2ccc(F)cc2)C(=O)NC[C@H]2CC[C@H](C(=O)N[C@@H](Cc3ccc4ccccc4c3)C(=O)NCCCC[C@H](NC(=O)N[C@@H](CCC(=O)O)C(=O)O)C(=O)O)CC2)CCN(CC(=O)[O-])CC1.[68Ga+3] [^68Ga-HTK03085] in the records?
Reply | 0.34

Ask | Which value of Bone uptake has been reported for O=C([O-])CN1CCN(CC(=O)[O-])CCN(CC(=O)NCCCC[C@H](NC(=O)CNC(=O)CCCc2ccc([N+](=O)[O-])cc2)C(=O)NC[C@H]2CC[C@H](C(=O)N[C@@H](Cc3ccc4ccccc4c3)C(=O)NCCCC[C@H](NC(=O)N[C@@H](CCC(=O)O)C(=O)O)C(=O)O)CC2)CCN(CC(=O)[O-])CC1.[68Ga+3] [^68Ga-HTK03089] in the records?
Reply | 0.41

Ask | Which value of Bone uptake has been reported for O=C([O-])CN1CCN(CC(=O)[O-])CCN(CC(=O)NCCCC[C@H](NC(=O)CNC(=O)CCCc2ccc(Cl)cc2)C(=O)NC[C@H]2CC[C@H](C(=O)N[C@@H](Cc3ccc4ccccc4c3)C(=O)NCCCC[C@H](NC(=O)N[C@@H](CCC(=O)O)C(=O)O)C(=O)O)CC2)CCN(CC(=O)[O-])CC1.[68Ga+3] [^68Ga-HTK03055] in the records?
Reply | 1.59

Ask | Which value of Bone uptake has been reported for Cc1ccc(CCCC(=O)NCC(=O)N[C@@H](CCCCNC(=O)CN2CCN(CC(=O)[O-])CCN(CC(=O)[O-])CCN(CC(=O)[O-])CC2)C(=O)NC[C@H]2CC[C@H](C(=O)N[C@@H](Cc3ccc4ccccc4c3)C(=O)NCCCC[C@H](NC(=O)N[C@@H](CCC(=O)O)C(=O)O)C(=O)O)CC2)cc1.[68Ga+3] [^68Ga-HTK03090] in the records?
Reply | 0.71

Ask | Which value of Bone uptake has been reported for O=C([O-])CN1CCN(CC(=O)[O-])CCN(CC(=O)NCCCC[C@H](NC(=O)CNC(=O)CCc2ccccc2)C(=O)NC[C@H]2CC[C@H](C(=O)N[C@@H](Cc3ccc4ccccc4c3)C(=O)NCCCC[C@H](NC(=O)N[C@@H](CCC(=O)O)C(=O)O)C(=O)O)CC2)CCN(CC(=O)[O-])CC1.[68Ga+3] [^68Ga-HTK03082] in the records?
Reply | 0.15

Ask | Which value of Bone uptake has been reported for Nc1ccc(CCCC(=O)NCC(=O)N[C@@H](CCCCNC(=O)CN2CCN(CC(=O)[O-])CCN(CC(=O)[O-])CCN(CC(=O)[O-])CC2)C(=O)NC[C@H]2CC[C@H](C(=O)N[C@@H](Cc3ccc4ccccc4c3)C(=O)NCCCC[C@H](NC(=O)N[C@@H](CCC(=O)O)C(=O)O)C(=O)O)CC2)cc1.[68Ga+3] [^68Ga-HTK03087] in the records?
Reply | 0.16

Ask | Which value of Bone uptake has been reported for CCCCCCC(NC(=O)C1CCC(CNC(=O)CN2CCN(CC(=O)[O-])CCN(CC(=O)[O-])CCN(CC(=O)[O-])CC2)CC1)C(=O)NCCCCC(NC(=O)NC(CCC(=O)O)C(=O)O)C(=O)O.[68Ga+3] (centres unmarked) [^68Ga-HTK03026] in the records?
Reply | 0.54

Ask | Which value of Bone uptake has been reported for COc1ccc(CCCC(=O)NCC(=O)N[C@@H](CCCCNC(=O)CN2CCN(CC(=O)[O-])CCN(CC(=O)[O-])CCN(CC(=O)[O-])CC2)C(=O)NC[C@H]2CC[C@H](C(=O)N[C@@H](Cc3ccc4ccccc4c3)C(=O)NCCCC[C@H](NC(=O)N[C@@H](CCC(=O)O)C(=O)O)C(=O)O)CC2)cc1.[68Ga+3] [^68Ga-HTK03086] in the records?
Reply | 0.72
